Cited source: the supplement of paper PMC11451515

- Test system: NOMO1
- Method: cell viability relative to DMSO control; higher = less cytotoxic
- Measurement setup: RPMI 5 mM glucose + 10% dialyzed FBS; 48 h; 0.00702 µM
Measured property: cell viability
Give the value; after it, write the unit.

Recorded result, `c1ccc(CCCN2CCN(CCOC(c3ccccc3)c3ccccc3)CC2)cc1` , cell viability: 92.7%

Recorded result, `O=C1NC(=O)/C(=C/c2ccc3nccc(-c4ccncc4)c3c2)S1` , cell viability: 92%

Recorded result, `CCN1CCN(CC1)CC(=O)NC2=CC=C(C3=C2C4=C(S3)C=CC=C4)C5=C6O\C(=C/C(=O)C6=CC=C5)N7CCOCC7` , cell viability: 131%

Recorded result, COc1ccccc1OCC(O)COC(N)=O (stereo not given) , cell viability: 111%

Recorded result, Cc1nn(Cc2ccccc2Cl)c(C)c1CN(C)CC(O)COc1ccc(Cl)cc1 (stereo not given) , cell viability: 110%
